Data origin: patent US6355799B1

tested on: green foxtail (Setaria viridis, SETVI); assay: Pre-emerge test, greenhouse herbicide activity screening; format: in vivo; settings: pre-emerge, rate 63 g ai/ha, phytotoxicity rating 0-100 at 14 days after application
MEASURED PARAMETER: Pre-emerge Herbicidal Activity SETVI
Form: value (number only, do not type unit).

INSERT INTO measurements (compound, measured_target, measured_parameter, obs_value) VALUES
  ('COc1ccc(COC(=O)Nc2c(C)c(Cl)cc(F)c2-n2c(=O)cc(C(F)(F)F)n(C)c2=O)cc1OC [4-63]', 'green foxtail (Setaria viridis, SETVI)', 'Pre-emerge Herbicidal Activity SETVI', 70),
  ('COc1c(Cl)cc(F)c(N2C(=O)C3=C(CCCC3)C2=O)c1N [8-7]', 'green foxtail (Setaria viridis, SETVI)', 'Pre-emerge Herbicidal Activity SETVI', 95),
  ('Cc1cccc(COC(=O)Nc2c(C)c(Cl)cc(F)c2-n2c(=O)cc(C(F)(F)F)n(C)c2=O)c1 [4-68]', 'green foxtail (Setaria viridis, SETVI)', 'Pre-emerge Herbicidal Activity SETVI', 100);

With green foxtail (Setaria viridis, SETVI) as the test system, Cc1cccc(C)c1OC(=O)Nc1c(C)c(Cl)cc(F)c1-n1c(=O)cc(C(F)(F)F)n(C)c1=O [4-55] showed Pre-emerge Herbicidal Activity SETVI of 40

Sample COc1c(Cl)cc(F)c(-n2nc(C)n(C(F)F)c2=O)c1NC(=O)c1ccc(F)cc1F [Compound 6-14] , system: green foxtail (Setaria viridis, SETVI). Its Pre-emerge Herbicidal Activity SETVI is 100

# COc1c(Cl)cc(F)c(N2C(=O)C3=C(CCCC3)C2=O)c1NC(=O)C=Cc1ccccc1 [8-31] with green foxtail (Setaria viridis, SETVI): Pre-emerge Herbicidal Activity SETVI is 10

The reported Pre-emerge Herbicidal Activity SETVI value, green foxtail (Setaria viridis, SETVI), for COc1c(Cl)cc(F)c(-n2ncc(C(F)(F)F)cc2=O)c1NC(=O)c1ccc2ccccc2c1 [Compound 11-6] reads 100

Item C#CCOc1c(Cl)cc(F)c(-n2nnn(CCCF)c2=O)c1N [Compound 5-17] ; assay system green foxtail (Setaria viridis, SETVI); Pre-emerge Herbicidal Activity SETVI reported as 95

###

System: upland rice (Oryza sp., var. Tebonnet, RICE)
Experiment: Pre-emerge test, crop safety
Format: in vivo
Conditions: crop damage, pre-emerge, rate 250 g ai/ha, phytotoxicity rating 0-100 at 14 days after application
Method: A standard greenhouse herbicide activity screening system was used to evaluate the herbicidal efficacy and crop safety of these test compounds. […] At 14 days after application of the test materials, phytotoxicity ratings were recorded. […]
Respond with criterion met for Pre-emerge Herbicidal Activity RICE values of 40 and above, criterion not met for values below.

INSERT INTO assay_data (molecule, class_assignment) VALUES
  ('COc1cccc(OC)c1OC(=O)Nc1c(C)c(Cl)cc(F)c1-n1c(=O)cc(C(F)(F)F)n(C)c1=O [4-59]', 'criterion met'),
  ('Cc1cccc(COC(=O)Nc2c(C)c(Cl)cc(F)c2-n2c(=O)cc(C(F)(F)F)n(C)c2=O)c1 [4-68]', 'criterion met');

-- ask # check: Pre-emerge Herbicidal Activity RICE of CC(C)Oc1c(Cl)cc(Cl)c(-n2nnn(CCCF)c2=O)c1N [Compound 5-16] is greater than or equal to 40
-- reply criterion not met

-- ask Is it the case that Cc1c(Cl)cc(F)c(-n2c(=O)cc(C(F)(F)F)n(C)c2=O)c1NC(=O)OCc1ccco1 [4-70] has Pre-emerge Herbicidal Activity RICE reaching or exceeding 40?
-- reply criterion met
